inhibition at 2 h, 30 µM listing for selected molecules.
# testSystem: hERG (KCNH2) (Homo sapiens)
# Sequence (Q12809 whole entry): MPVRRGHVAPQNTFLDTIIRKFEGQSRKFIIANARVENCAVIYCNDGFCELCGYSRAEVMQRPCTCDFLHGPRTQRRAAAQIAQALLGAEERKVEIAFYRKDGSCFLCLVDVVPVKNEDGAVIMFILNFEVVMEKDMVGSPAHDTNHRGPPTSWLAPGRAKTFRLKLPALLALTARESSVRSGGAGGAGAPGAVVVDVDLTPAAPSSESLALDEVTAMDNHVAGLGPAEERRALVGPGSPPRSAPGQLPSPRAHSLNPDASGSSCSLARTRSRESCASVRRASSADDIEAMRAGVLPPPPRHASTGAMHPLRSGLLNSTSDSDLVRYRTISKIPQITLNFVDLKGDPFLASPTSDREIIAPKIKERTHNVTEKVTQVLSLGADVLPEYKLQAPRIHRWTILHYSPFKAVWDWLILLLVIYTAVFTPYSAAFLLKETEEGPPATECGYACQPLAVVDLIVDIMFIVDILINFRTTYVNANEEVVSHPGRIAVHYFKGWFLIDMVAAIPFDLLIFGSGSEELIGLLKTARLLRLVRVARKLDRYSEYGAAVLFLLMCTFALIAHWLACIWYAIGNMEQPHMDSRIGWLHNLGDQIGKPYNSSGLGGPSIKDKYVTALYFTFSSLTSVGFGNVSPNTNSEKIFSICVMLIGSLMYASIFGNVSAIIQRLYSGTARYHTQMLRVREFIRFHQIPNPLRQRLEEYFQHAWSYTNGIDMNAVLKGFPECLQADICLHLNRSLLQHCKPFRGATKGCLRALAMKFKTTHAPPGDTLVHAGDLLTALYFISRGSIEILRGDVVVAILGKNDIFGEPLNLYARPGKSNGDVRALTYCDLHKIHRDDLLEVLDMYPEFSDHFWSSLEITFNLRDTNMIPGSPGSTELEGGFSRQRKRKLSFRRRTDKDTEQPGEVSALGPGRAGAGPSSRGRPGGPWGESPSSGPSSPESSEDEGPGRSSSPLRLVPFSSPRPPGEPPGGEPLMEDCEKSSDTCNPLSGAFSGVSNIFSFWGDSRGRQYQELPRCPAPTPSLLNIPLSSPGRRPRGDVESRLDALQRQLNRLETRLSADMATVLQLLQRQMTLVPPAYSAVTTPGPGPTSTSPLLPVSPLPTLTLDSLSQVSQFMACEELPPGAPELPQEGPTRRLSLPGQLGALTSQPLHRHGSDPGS
# testDetails: Inhibition of [3H]-astemizole binding to human ERG at 30 uM after 2 hrs by liquid scintillation counting method relative to control
# testSettings: probe [3H]-astemizole
Could you give me the number in %? Just the number is fine.

molecule	testSystem	reading
COc1ccc(N2CCOCC2)c2sc(NC(=O)C3(C)CCC(C)(O)CC3)nc12 (stereo not drawn)	hERG (KCNH2) (Homo sapiens)	26

The measured inhibition at 2 h, 30 µM associated with CCN(CC)C1CCC(C)(C(=O)Nc2nc3c(OC)ccc(N4CCOCC4)c3s2)CC1 (stereo not drawn) reads 18

* * *

# testSystem: Adenosine receptor A1 (Homo sapiens, UniProt P30542)
# testDetails: Antagonist activity at human adenosine A1 receptor expressed in HEK293 cell membranes assessed as decrease in CPA/forskolin-induced cAMP level pretreated for 15 mins followed by agonist addition for 15 mins and subsequent forskolin stimulation measured after 30 mins
# Format: functional, cell-based
property: Ki (µM)
Could you give me the number in µM? Just the number is fine.

The measured Ki associated with COc1ccc(N2CCOCC2)c2sc(NC(=O)C3(C)CCC(O)CC3)nc12 (configuration not stated) reads 0.0418

The measured Ki associated with COc1ccc(N2CCOCC2)c2sc(NC(=O)C(C)(C)Oc3ccc(F)cc3)nc12 reads 2

* * *

# testSystem: Adenosine receptor A1 (Homo sapiens)
# Sequence (whole entry): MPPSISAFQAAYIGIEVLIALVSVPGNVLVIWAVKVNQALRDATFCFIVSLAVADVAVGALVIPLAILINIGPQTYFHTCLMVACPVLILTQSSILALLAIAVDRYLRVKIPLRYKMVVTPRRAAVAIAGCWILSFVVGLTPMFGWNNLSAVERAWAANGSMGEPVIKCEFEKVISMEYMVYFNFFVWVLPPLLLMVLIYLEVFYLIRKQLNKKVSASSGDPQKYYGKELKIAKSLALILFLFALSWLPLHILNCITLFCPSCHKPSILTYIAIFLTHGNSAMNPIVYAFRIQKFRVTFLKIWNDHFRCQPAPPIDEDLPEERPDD
# testDetails: Displacement of [3H]-DPCPX from human adenosine A1 receptor expressed in HEK293 cell membranes at 1 uM measured after 90 mins relative to control
property: inhibition (%)
Could you give me the number in %? Just the number is fine.

compound	scaleUnit	inhibition
COCCOc1cccc(OC(C)(C)C(=O)Nc2nc3c(OC)ccc(N4CCOCC4)c3s2)c1	%	34
COc1cnc(N2CCOCC2)c2sc(NC(=O)C(C)(C)Oc3ccc(F)cc3)nc12	%	46
COc1ccc(N2CCOCC2)c2sc(NC(=O)C(C)(C)Oc3ccc(C)cc3)nc12	%	7
COc1ccc(N2CCOCC2)c2sc(NC(=O)C(C)(C)Oc3ccc(F)cc3F)nc12	%	33

Alright, here's another molecule for you.
The measured inhibition associated with COc1cnc(N2CCOCC2)c2sc(NC(=O)C(C)(C)Oc3cccc(F)c3)nc12 reads 90

* * *

# testSystem: Adenosine receptor A2a (Homo sapiens, UniProt P29274)
# Sequence (P29274 whole entry): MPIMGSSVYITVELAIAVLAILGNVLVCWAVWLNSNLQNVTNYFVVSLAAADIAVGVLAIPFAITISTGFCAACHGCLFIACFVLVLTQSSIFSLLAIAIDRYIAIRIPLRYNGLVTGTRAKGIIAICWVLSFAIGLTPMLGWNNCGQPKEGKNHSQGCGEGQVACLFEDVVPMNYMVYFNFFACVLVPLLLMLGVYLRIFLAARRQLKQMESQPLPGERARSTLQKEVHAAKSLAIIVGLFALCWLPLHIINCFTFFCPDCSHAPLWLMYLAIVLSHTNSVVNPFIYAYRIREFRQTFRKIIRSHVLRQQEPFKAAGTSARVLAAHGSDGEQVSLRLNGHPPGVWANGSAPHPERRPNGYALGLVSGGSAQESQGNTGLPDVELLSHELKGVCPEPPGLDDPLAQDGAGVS
# testDetails: Antagonist activity at human adenosine A2A receptor expressed in HEK293 cell membranes assessed as decrease in CGS-21680-induced cAMP level pretreated for 15 mins followed by agonist addition for 30 mins
Ki listing for selected compounds.
Could you give me the number in nM? Just the number is fine.

compound	scaleUnit	Ki
COc1ccc(N2CCOCC2)c2sc(NC(=O)C(C)(C)Oc3ccc(F)c(F)c3)nc12	nM	2.4
COc1ccc(N2CCOCC2)c2sc(NC(=O)C(C)(C)Oc3c(F)cccc3F)nc12	nM	1
COCCOc1cccc(OC(C)(C)C(=O)Nc2nc3c(OC)cnc(N4CCOCC4)c3s2)c1	nM	28

Alright, here's another compound for you.
So the reported Ki for COc1ccc(N2CCOCC2)c2sc(NC(=O)C(C)(C)Oc3ccc(C)cc3)nc12 , on Adenosine receptor A2a (Homo sapiens, UniProt P29274), turned out to be 8.3

* * *

solubility thermodynamic at 4 h listing for selected compounds.
# testDetails: Equilibrium aqueous solubility of the compound at pH 4 after 4 hrs
# Type: physicochemical
# testSettings: aqueous medium

Reference set, count: 2
compound	property	reading
COc1cnc(N2CCOCC2)c2sc(NC(=O)C(C)(C)Oc3ccc(F)cc3)nc12	solubility thermodynamic at 4 h	< 6 µM
COc1ccc(N2CCOCC2)c2sc(NC(=O)C(C)(C)Oc3ccc(F)cc3)nc12	solubility thermodynamic at 4 h	< 6 µM

The measured solubility thermodynamic at 4 h associated with COc1ccc(N2CCOCC2)c2sc(NC(=O)C(C)(C)Oc3ccc(F)c(F)c3)nc12 reads < 6 µM

* * *

# testDetails: Equilibrium aqueous solubility of the compound at pH 7.4 after 4 hrs
# Assay type: physicochemical
# testSettings: aqueous medium
solubility thermodynamic at 4 h listing for selected compounds.

Reference set, count: 2
compound	reading
COc1ccc(N2CCOCC2)c2sc(NC(=O)C(C)(C)Oc3ccc(F)c(F)c3)nc12	< 6 µM
COc1cnc(N2CCOCC2)c2sc(NC(=O)C(C)(C)Oc3ccc(F)cc3)nc12	< 6 µM

The measured solubility thermodynamic at 4 h associated with COc1ccc(N2CCOCC2)c2sc(NC(=O)C(C)(C)Oc3ccc(F)cc3)nc12 reads < 6 µM

* * *

# Test system: Liver
# testDetails: Metabolic stability in human liver microsomes assessed as metabolic rate at 1 uM preincubated for 5 mins followed by addition of NADPH measured after 3 to 30 mins by LC-MS/MS analysis
# Assay type: ADME, microsome
Drug metabolism listing for selected compounds.
Could you give me the number in nmol/min/mg? Just the number is fine.

Reference set, count: 3
compound	testSystem	Drug metabolism [nmol/min/mg]
COc1ccc(N2CCOCC2)c2sc(NC(=O)C(C)(C)Oc3cccc(F)c3)nc12	Liver	0.08
COc1ccc(N2CCOCC2)c2sc(NC(=O)C(C)(C)Oc3c(F)cccc3F)nc12	Liver	0.16
COc1ccc(N2CCOCC2)c2sc(NC(=O)C(C)(C)Oc3ccc(F)cc3)nc12	Liver	0.02

The measured Drug metabolism associated with CCN(CC)C1CCC(C)(C(=O)Nc2nc3c(OC)ccc(N4CCOCC4)c3s2)CC1 (stereo unspecified) reads 0.03

* * *

# testDetails: Equilibrium aqueous solubility of the compound at pH 2.1 after 4 hrs
# Type: physicochemical
# testSettings: aqueous medium
property: solubility thermodynamic at 4 h

Reference set, count: 2
compound	solubility thermodynamic at 4 h
COc1cnc(N2CCOCC2)c2sc(NC(=O)C(C)(C)Oc3ccc(F)cc3)nc12	< 6 µM
COc1ccc(N2CCOCC2)c2sc(NC(=O)C(C)(C)Oc3ccc(F)c(F)c3)nc12	< 6 µM

Alright, here's another compound for you.
The measured solubility thermodynamic at 4 h associated with COc1ccc(N2CCOCC2)c2sc(NC(=O)C(C)(C)Oc3ccc(F)cc3)nc12 reads < 6 µM

* * *

# testDetails: Clearance in Wistar rat at 3 mg/kg, iv by LC/MS/MS analysis
# Format: ADME, organism-based
# testSettings: in vivo
property: clearance (mL/min/kg)
Could you give me the number in mL/min/kg? Just the number is fine.

compound	scaleUnit	clearance
CCN(CC)C1CCC(C)(C(=O)Nc2nc3c(OC)ccc(N4CCOCC4)c3s2)CC1 (stereo not drawn)	mL/min/kg	37.2
COc1cnc(N2CCOCC2)c2sc(NC(=O)C(C)(C)Oc3ccc(F)cc3)nc12	mL/min/kg	6.6

The measured clearance associated with COc1ccc(N2CCOCC2)c2sc(NC(=O)C(C)(C)Oc3ccc(F)c(F)c3)nc12 reads 10.2

* * *

# Test system: Liver
# testDetails: Metabolic stability in rat liver microsomes assessed as metabolic rate at 1 uM preincubated for 5 mins followed by addition of NADPH measured after 3 to 30 mins by LC-MS/MS analysis
# Type: ADME, microsome
property: Drug metabolism

compound	Drug metabolism
COc1cnc(N2CCOCC2)c2sc(NC(=O)C(C)(C)Oc3ccc(F)cc3F)nc12	< 0.01 nmol/min/mg
COc1ccc(N2CCOCC2)c2sc(NC(=O)C3(C)CCC(C)(O)CC3)nc12 (centres undefined)	< 0.04 nmol/min/mg
COc1cnc(N2CCOCC2)c2sc(NC(=O)C(C)(C)Oc3ccc(F)cc3)nc12	< 0.04 nmol/min/mg

Alright, here's another compound for you.
The measured Drug metabolism associated with COc1cnc(N2CCOCC2)c2sc(NC(=O)C(C)(C)Oc3cccc(F)c3)nc12 reads < 0.02 nmol/min/mg
